All values here come from PubChem BioAssay AID1159580.

Measured normalized growth by item
# assayOverview: chemical genetic growth profiling, strain panel (AID 1159580);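 note: tested at 20 µM; growth read once vehicle control cultures reached saturation at 30 °C; 1 = growth at the plate median or of vehicle wells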
# runParameters: S. cerevisiae deletion strains, growth OD, locus YGL240W, strain doc1, stronger effect = lower value
Hit rate of the full screen: of about 5,500 compounds, about 2,000 (36%) were called active. Another 18% or so got no clear call; they are omitted. The list shows a part of the results.

{"compound": "C[C@@H]1CC[C@@]2(OC1)OC1CC3C4CC=C5C[C@@H](O)CC[C@]5(C)C4CC[C@]3(C)C1[C@@H]2C (some centres undefined)", "normalized growth": "0.985 (inactive)"}

What normalized growth value was documented for this compound, CC1CC[C@@]2(OC1)O[C@H]1CC3C4CC[C@@H]5C[C@@H](O)CC[C@]5(C)C4CC[C@]3(C)[C@H]1[C@@H]2C (some centres undefined) ? 1.02 (inactive)

Again, but for Oc1ccc2c(c1)OCC1(O)Cc3cc(O)c(O)cc3C21 (centres undefined) 1.02 (inactive)

Repeat with C[C@@H]1CC[C@@]2(OC1)O[C@H]1CC3C4CC[C@H]5C[C@@H](O)CC[C@]5(C)C4CC[C@]3(C)[C@H]1[C@@H]2C (some centres undefined) 1.01 (inactive)

---

# assayOverview: chemical genetic growth profiling, strain panel (AID 1159580)
# runParameters: S. cerevisiae deletion strains, growth OD, locus YNL153C, strain GIM3, stronger effect = lower value
Screen size: about 5,500 compounds; about 2,000 (36%) were called active. Roughly 18% stayed inconclusive and do not appear here. This is one part of the list.
readoutLabel: normalized growth
// response body must contain only the number

Here are 5 compounds together with their reported answers.
{"compound": "NC(=O)OCC(COC(N)=O)c1ccccc1", "normalized growth": 1.04}
{"compound": "Cc1cc(I)c(C)cc1I", "normalized growth": 0.984}
{"compound": "Cc1cc(OC(=O)c2c(C)cc(O)cc2O)cc(O)c1C(=O)O", "normalized growth": 0.985}
{"compound": "O=[N+]([O-])c1ccc(Oc2cccc3cccnc23)cc1", "normalized growth": 0.848}
{"compound": "CC[n+]1c(-c2ccccc2)c2cc(N)ccc2c2ccc(N)cc21", "normalized growth": 0.888}

Can you share its normalized growth? I mean this compound: COC(=O)c1c(C)cc(OC)cc1O 0.988

How about this compound: CN1CCC2(CCN3CCc4c(oc5ccccc45)C3C2)N(C)C1=O (centres undefined) 1

Also CCN1C[C@]2(C)CC[C@H](OC)[C@]34C2[C@H](O)[C@]2(OCO[C@@]25C[C@H](OC)[C@H]2C[C@]3(O)C5[C@H]2O)C14 , if possible. 1

---

# key: entry, value: normalized growth
# assayOverview: chemical genetic growth profiling, strain panel (AID 1159580)
# runParameters: S. cerevisiae deletion strains, growth OD, locus YOR270C, strain vph1, stronger effect = lower value
About 2,000 (36%) of roughly 5,500 compounds were called active. Not shown: some 18% with an inconclusive outcome. The list shows a part of the results.

Worked examples follow.
{"molecule": "O=c1c(O)c(-c2ccc(O)c(O)c2)oc2c(O)c(O)cc(O)c12", "normalized growth": "0.948 (inactive)"}
{"molecule": "CCCC(C)(COC(N)=O)COC(=O)NC(C)C (stereo not drawn)", "normalized growth": "0.968 (inactive)"}

Now consider a different molecule.
May I ask what normalized growth has been recorded for COc1cc(OC)c2c(=O)c(O)c(-c3ccc(OC)c(OC)c3)oc2c1 ? 0.716 (active)

---

# assayOverview: chemical genetic growth profiling, strain panel (AID 1159580)
# runParameters: S. cerevisiae deletion strains, growth OD, locus YER155C, strain BEM2, stronger effect = lower value
Screen size: about 5,500 compounds; about 2,000 (36%) were called active. Another 18% or so got no clear call; they are omitted. Some of the results follow.
Let's look at some molecules and their measured normalized growth.
Number, no unit, nothing else.

{"molecule": "CC(C)(O)[C@@H]1Cc2cc3ccc(=O)oc3cc2O1", "normalized growth": 1}

// normalized growth lookup, key: CC1O[C@@H](Oc2c(-c3ccc(O)c(O)c3)oc3cc(O)cc(O)c3c2=O)[C@H](O)[C@H](O)[C@H]1O (some centres undefined) 0.995

For CNC(C)C(O)c1ccccc1 (centres undefined) then? 1

Quick one: COc1ccc2c(c1)CCC1C2CCC2(C)C1C[C@@H](O)C2O (some centres undefined) 1.02

---

# assayOverview: chemical genetic growth profiling, strain panel (AID 1159580)
# runParameters: S. cerevisiae deletion strains, growth OD, locus YDL185W, strain tfp1, stronger effect = lower value
Screen size: about 5,500 compounds; about 2,000 (36%) were called active. Inconclusive results (about 18%) are left out. This is one part of the list.
readoutLabel: normalized growth
Provide a numeric answer; units are not to be included.

Some compounds with known normalized growth results, for comparison:
{"compound": "C=C[C@H]1CN2CC[C@H]1C[C@@H]2[C@@H](OC(=O)OCC)c1ccnc2ccc(OC)cc12", "normalized growth": 1.02}
{"compound": "CNC(C)C(O)c1ccccc1 (stereo not drawn)", "normalized growth": 1.01}

Tell me the measured normalized growth of CO[C@@]1(NC(=O)C(C(=O)O)c2ccc(O)cc2)C(=O)N2C(C(=O)O)=C(CSc3nnnn3C)CO[C@@H]21 (stereo partly drawn) , please. 1.03

---

Documented normalized growth across a set of molecules
# assayOverview: chemical genetic growth profiling, strain panel (AID 1159580);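 note: tested at 20 µM; growth read once vehicle control cultures reached saturation at 30 °C; 1 = growth at the plate median or of vehicle wells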
# runParameters: S. cerevisiae deletion strains, growth OD, locus YLR058C, strain SHM2 (second series), stronger effect = lower value
Out of some 5,500 compounds screened, about 2,000 (36%) were called active. About 18% were inconclusive and are not listed. The list shows a part of the results.
Form: value (number only, do not type unit).

Example molecules with recorded normalized growth:
{"molecule": "CCOC(=O)C1=C(N)Oc2ccc(Br)cc2C1C(C#N)C(=O)OCC (stereo unspecified)", "readoutLabel": "normalized growth", "reportedMeasurement": 0.986}
{"molecule": "COCCCNC(=S)N/N=C\\c1cccc(OC)c1O", "readoutLabel": "normalized growth", "reportedMeasurement": 0.997}
{"molecule": "Cc1onc(-c2ccc(Cl)cc2)c1-c1ccnn1C(=O)NC(C)C", "readoutLabel": "normalized growth", "reportedMeasurement": 0.92}
{"molecule": "CCN(CC)C(=O)c1[nH]c(C)c(C)c1C", "readoutLabel": "normalized growth", "reportedMeasurement": 1.01}
{"molecule": "O=[N+]([O-])c1ccc(OCCCOc2ccc([N+](=O)[O-])cc2)cc1", "readoutLabel": "normalized growth", "reportedMeasurement": 0.975}

Moving on to another molecule below.
What value of measured normalized growth is listed for S=c1nccc(-c2ccc(Cl)cc2)[nH]1 ? 0.957

---

# assayOverview: chemical genetic growth profiling, strain panel (AID 1159580);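 note: tested at 20 µM; growth read once vehicle control cultures reached saturation at 30 °C; 1 = growth at the plate median or of vehicle wells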
# runParameters: S. cerevisiae deletion strains, growth OD, locus YDR150W, strain NUM1, stronger effect = lower value
About 2,000 (36%) of roughly 5,500 compounds were called active. Another 18% or so got no clear call; they are omitted. This is one part of the list.
normalized growth by entry:
Enter the number alone.

Consider the worked cases shown below.
{"molecule": "N#CC(C#N)=Cc1cc(O)c(O)c(O)c1", "reportedMeasurement": 0.988}
{"molecule": "Cn1c2c(c3c1CCCC3)CCCC2", "reportedMeasurement": 1.02}
{"molecule": "CC(C)(C)c1cc(C=C(C#N)C#N)cc(C(C)(C)C)c1O", "reportedMeasurement": 1.01}
{"molecule": "O=C(OC1Cc2c(O)cc(O)cc2OC1c1cc(=O)c(O)c2c(O)c(O)cc(C3Oc4cc(O)cc(O)c4CC3O)c2c1)c1cc(O)c(O)c(O)c1 (stereo not given)", "reportedMeasurement": 0.651}
{"molecule": "COC(=O)[C@@H]1[C@H]2C[C@H]3c4[nH]c5ccccc5c4CCN3C[C@@H]2CC[C@@H]1O", "reportedMeasurement": 1.01}
{"molecule": "NNC(=O)c1ccc(O)cc1", "reportedMeasurement": 1.01}

Query (molecule): N#C/C(=C\c1ccc(O)c(O)c1)C(=O)c1ccc(O)c(O)c1 ; field requested: normalized growth 0.997

---

# assayOverview: chemical genetic growth profiling, strain panel (AID 1159580);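 note: tested at 20 µM; growth read once vehicle control cultures reached saturation at 30 °C; 1 = growth at the plate median or of vehicle wells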
# runParameters: S. cerevisiae deletion strains, growth OD, locus YBL061C, strain skt5, stronger effect = lower value
Screen size: about 5,500 compounds; about 2,000 (36%) were called active. Another 18% or so got no clear call; they are omitted. The list shows a part of the results.
readoutLabel: normalized growth
Give a plain numeric answer without units written out.

{"compound": "CO[C@@]1(NC(=O)C(C(=O)O)c2ccc(O)cc2)C(=O)N2C(C(=O)O)=C(CSc3nnnn3C)CO[C@@H]21 (some centres not stated)", "normalized growth": 0.979}
{"compound": "CC1(C)C2CC(=O)[C@]3(C)C(CC[C@@]4(C)[C@H](c5ccoc5)OC(=O)C5OC543)[C@@]2(C)[C@@H](O)C[C@H]1O (some centres not stated)", "normalized growth": 1.01}
{"compound": "CCCCCCCCCCCC1=C(O)C(=O)C=C(O)C1=O", "normalized growth": 0.795}

What value of normalized growth has been reported for the following compound? Cc1ccccc1OCC(O)CO (configuration not stated) 0.962

O=c1ccc2cc(OC3OC(CO)C(O)C(O)C3O)c(O)cc2o1 (configuration not stated) ? 1

Next entry: C[C@@H]1CC[C@@]2(NC1)O[C@H]1C[C@H]3C4CC=C5C[C@@H](O)CC[C@]5(C)C4CC[C@]3(C)C1[C@@H]2C (some centres not stated) 0.246

# iterate: CCOCN(C(=O)CCl)c1c(C)cccc1CC 0.994
